system: Zika virus NS2B-NS3 protease (unlinked complex); experiment: Primary screen GU Rhodamine qHTS for Zika virus inhibitors: Unlinked NS2B-NS3 protease assay (AID 1347159); settings: Recombinant ZIKV NS2B-NS3 protease, Rhodamine110 substrate fluorescence; series mostly up to 107 µM; further: nearly all actives have a fitted effect of over 60% in size
Inconclusive results are not listed. Calls of active or inactive are those of the source. The call rests on the fitted dose curve; in most records, active means well fitted inhibition curve with a large enough effect; inconclusive means small, poorly fitted or top-dose-only effect; inactive means no such curve, though single readings can be large or run the other way.
Please reply with one of these outcomes: active, inactive

Reference set (2 entries):
1. CCc1cc(C(N)=O)ccc1-n1nc(C(C)C)c2c(-n3cnc(-c4cnn(C)c4)c3)ccnc21 ... inactive
2. CN(C)C(=O)C(=O)c1cn(C)c2cc(Cl)c(C(=O)N3CCC(Cc4ccc(F)cc4)CC3)cc12 ... inactive

Prompt: For this molecule, state the assay outcome: C[C@H](Nc1cc2c(-c3ccc4c(c3)OCO4)noc2cn1)c1ccccc1
Completion: inactive

Prompt: For this molecule, state the assay outcome: Nc1cccc(CNC(=O)c2ccc(Oc3ccc(OCc4cccc(F)c4)cc3)nc2)c1
Completion: inactive

Prompt: For this molecule, state the assay outcome: COc1ccc2nccc(C(=O)CC[C@@H]3CCN(CC#Cc4cc(F)cc(F)c4F)C[C@@H]3C(=O)O)c2c1
Completion: active

----------
tested on: HaCat; test: Cytotoxic Profiling of Annotated Libraries Using Quantitative High-Throughput Screening (AID 1296008); details: Five cell lines viability, CellTiter-Glo ATP luminescence, 48-72 h; further: nearly all actives have a fitted effect of over 60% in size; further: potency means the concentration at half of the fitted maximal effect
Inconclusive results are not listed. The source made the active and inactive calls. Calls come from the whole dose curve; as a rule, active = well fitted inhibition curve with a large enough effect; inconclusive = small, poorly fitted or top-dose-only effect; inactive = flat fitted curve, though single readings scatter.
endpoint: Potency

Examples from the recorded data:
1) C/C=C/C1=CC2=C(CO1)C(=O)C(C)(OC(=O)c1c(C)cc(O)cc1OC)C(O)C2 (stereo not given) ... inactive
2) CN(C)c1cccc(Oc2cnc(Nc3cccc(O)c3)nc2)c1 ... inactive
3) COC(=O)C[C@H]1C(C)(C)[C@H](OC(=O)c2ccccc2)C2CC3=C4CC(=O)O[C@@H](c5ccoc5)[C@]4(C)CCC3[C@@]1(C)C2=O (stereo not given in full) ... inactive
4) O=S(=O)(N[C@H]1CCCC[C@@H]1N1CCOCC1)c1ccc(Cl)cc1 ... inactive
5) O=C(NNc1nc2cc(F)ccc2n2cccc12)c1cnccn1 ... 3260 nM (active)
6) CC(=O)OC[C@]12[C@H](OC(C)=O)C(=O)[C@@H]3[C@@H](O)[C@@]14O[C@@]3(C)COC(=O)c1cccnc1[C@@H](C)[C@H](C)C(=O)O[C@@H]([C@H](O)[C@@H]2OC(C)=O)[C@]4(C)O ... inactive
7) CC(=O)OC(C)(C)/C=C/C(=O)[C@](C)(O)[C@H]1C(O)C[C@@]2(C)[C@@H]3CC=C4[C@@H](C=C(O[C@@H]5O[C@H](CO)[C@@H](O)[C@H](O)[C@H]5O)C(=O)C4(C)C)[C@]3(C)C(=O)C[C@]12C (stereo not given in full) ... inactive
8) Cc1cccc(-c2[nH]ncc2-c2ccnc3ccccc23)n1 ... inactive

Dear reader, for each entry below, please note its Potency.
1. Cc1ccc(N2CCN(S(=O)(=O)N3CCCCC3)CC2)c(C)c1
2. Cc1[nH]c2ccccc2c1CCNCc1ccc(/C=C/C(=O)NO)cc1
3. C=C1CO[C@@]2(O[C@H]3CC4C5CC=C6C[C@@H](O)C[C@@H](O[C@@H]7OC[C@H](O)[C@H](O[C@@H]8OC[C@@H](O)[C@H](O)[C@H]8O)[C@H]7O[C@@H]7O[C@@H](C)[C@H](OC(C)=O)[C@@H](OC(C)=O)[C@H]7OC(C)=O)[C@]6(C)C5CC[C@]4(C)[C@@H]3[C@@H]2C)[C@@H](O)[C@H]1OC1OC(C)C(O)C(O)C1O (stereo not given in full)
4. O=C1NC(=O)C(c2cnc3ccccn23)=C1c1cn2c3c(cc(F)cc13)CN(C(=O)N1CCCCC1)CC2
5. Cc1ccccc1CN1CCn2c1nc1c(c2=O)CN(Cc2ccccc2)CC1
6. CCNC1(C(N)=O)CCN(c2ncnc3c2nc(-c2ccccc2Cl)n3-c2ccc(Cl)cc2)CC1
7. O[C@@](Cc1ncc(CC2(C(F)(F)F)CC2)[nH]1)(c1ccc(-n2cccn2)cc1)C(F)(F)F

Completion:
inactive
184 nM (active)
inactive
inactive
inactive
inactive
inactive

----------
target: Guanidinoacetate N-methyltransferase (Homo sapiens) (UniProt Q14353); experiment: Confirmatory Screen for Target Class Profiling of Small Molecule Inhibitors of Methyltransferases (AID 1745852); settings: MTase-Glo luminescence, SAH detection, recombinant enzyme; series mostly up to 57.3 µM; further: potency means the concentration at half of the fitted maximal effect
Activity calls are given as the source filed them. Calls come from the whole dose curve.
Please provide measured Potency for the entries that follow.

1) CC12CCC3C1C(c1c(cc(O)c(C(=O)c4ccccc4)c1O)O2)C3(C)C (centres undefined) ... 21.1 µM (active)

Dear reader, for each entry below, please note its Potency.
1. c1cc(NCCc2c[nH]c3ccccc23)cc(Nc2ccncc2)c1
2. C[C@H](Oc1cc(-c2cnn(C3CCNCC3)c2)cnc1N)c1c(Cl)ccc(F)c1Cl
3. N#Cc1ccc(COC[C@H]2O[C@@H](n3c(NCc4ccc(Cl)c(Cl)c4)nc4c(N)ncnc43)[C@H](O)[C@@H]2O)cc1

Completion:
1: 48.2 µM (active); 2: 27.1 µM (active); 3: 23.5 µM (active)

----------
test: Primary fluorescence-based thiol-reactive (MSTI) qHTS assay for identification of artifact compounds. (AID 1845221); conditions: MSTI thiol-reactivity probe, 1 h; series mostly up to 53.8 µM; further: potency means the concentration at half of the fitted maximal effect; nearly all actives have a fitted effect of over 65% in size
Results filed as inconclusive are left out. The source made the active and inactive calls. The call rests on the fitted dose curve; in most records, active means well fitted inhibition curve with a large enough effect; inconclusive means small, poorly fitted or top-dose-only effect; inactive means no such curve, though single readings can be large or run the other way.
Please reply with one of these outcomes: T for active, F for inactive

Prompt: For this compound, state the assay outcome: Oc1ccc(-c2cnc3ccc(NCc4ccco4)nn23)cc1
Completion: T

----------
system: HaCat; test: Cytotoxic Profiling of Annotated Libraries Using Quantitative High-Throughput Screening (AID 1296008); settings: Five cell lines viability, CellTiter-Glo ATP luminescence, 48-72 h; hits give low values; further: nearly all actives have a fitted effect of over 60% in size; on max response: on the % scale 0 is the no-effect control and ±100 the full control effect
Records with an inconclusive call do not appear.
Please provide measured max response for the entries that follow.
Give bare numbers, in %.

1. O=C(Nc1cccc([N+](=O)[O-])c1)c1cccc(S(=O)(=O)N2CCCCCC2)c1 ... -27.5

Dear reader, for each entry below, please note its max response.
1. O=C(N[C@H](Cc1cscn1)C(=O)N[C@@H](CC1CCCCC1)[C@@H](O)[C@@H](O)C1CC1)c1nc2ccccc2[nH]1
2. CS(=O)(=O)c1ccc(Oc2cc(F)cc(C#N)c2)c2c1[C@H](O)C(F)(F)C2
3. CN1CCN(C(=O)CN[C@@H]2C[C@H]2c2ccc(OCc3ccccc3)cc2)CC1

Completion:
1. -14.3
2. -0.258
3. -3.34

Dear reader, for each entry below, please note its max response.
1. COc1cc(OC)c(NC(=O)c2ccc(Cc3cc4c(cc3C)C(C)(C)CCC4(C)C)o2)c(OC)c1
2. COCC(c1ccc(C(F)(F)F)cc1)N1CCN(C2(C)CCN(C(=O)c3c(C)ncnc3C)CC2)CC1C (stereo unspecified)
3. COc1ccc(CCc2nc3cc(-c4c(C)noc4C)ccc3n2CC(C)N2CCOCC2)cc1Cl (stereo unspecified)
4. COc1cc(-c2cn(C3CCc4c(F)cccc4N(CC(F)(F)F)C3=O)nn2)ccc1-n1cnc(C)c1 (stereo unspecified)
5. C[C@@H]1O[C@@H](O[C@H]2[C@@H](OC(=O)[C@]34CCC(C)(C)CC3C3=CCC5[C@@]6(C)C[C@H](O)[C@H](O[C@@H]7O[C@H](CO)[C@@H](O)[C@H](O)[C@H]7O[C@@H]7OC[C@@H](O)[C@H](O)[C@H]7O)[C@@](C)(C(=O)O)C6CC[C@@]5(C)[C@]3(C)CC4)OC[C@H](O)[C@@H]2O)[C@H](O)[C@H](O)[C@H]1O[C@@H]1OC[C@@H](O)[C@H](O)[C@H]1O (stereo partly specified)
6. CC(C)(C[C@@](O)(Cc1cc2ccncc2[nH]1)C(F)(F)F)c1cc(F)ccc1O
7. Nc1nc2c(ncn2C2OC3COP(=O)(O)OC3C2O)c(=O)[nH]1 (stereo unspecified)

Completion:
[3.56, -10.9, -1.2, -32.4, -2.16, -2.9, -25.5]

Dear reader, for each entry below, please note its max response.
1. CCC(C)C(=O)OC12C(OC(C)=O)C(C)C3(O)C(C=C(CO)CC4(O)C(=O)C(C)=CC43)C1C2(C)C (stereo unspecified)
2. COc1cc(NC(=O)c2cccc(-n3cc(NC(=O)Nc4cccc(C)c4)cn3)c2)cc(OC)c1OC
3. CC(C)c1ccccc1OC(=O)NCCc1ccc2ccccc2c1
4. COc1ccc(C2(CNC(=O)c3ccc(NC(=O)c4ccco4)cc3)CCOCC2)cc1
5. Cc1c(F)ccc(C(=O)Nc2cc([N+](=O)[O-])ccc2N2CCN(C)CC2)c1Cl

Completion:
1: -11.4; 2: 3.54; 3: 3.54; 4: -26.6; 5: 0.293

Dear reader, for each entry below, please note its max response.
1. O=C(NC[C@H](O)CN1CCc2ccccc2C1)c1ccnc(NC2CCC2)c1
2. C=C[C@H](/C=C\c1ccc(O)cc1)c1ccc(O)cc1
3. O=C(Nc1ccc(-c2ccc(Cl)c(Cl)c2)cc1)C1=C(O)c2ccccc2S(=O)(=O)N1
4. C/C=C(/C)C(=O)OC1CC(C)(C)CC2C3=CCC4C5(C)CCC(O[C@@H]6O[C@H](C(=O)O)[C@@H](O)[C@H](O)[C@H]6O[C@@H]6O[C@H](CO)[C@H](O)[C@H](O[C@@H]7OC[C@H](O)[C@H](O)[C@H]7O[C@@H]7O[C@H](CO)[C@@H](O)[C@H](O)[C@H]7O)[C@H]6O)C(C)(C)C5CCC4(C)C3(C)C(O)C(O)C12CO (stereo partly specified)
5. C=C(C(=O)O)[C@@H]1CC=C(CCC(C)=O)[C@@H](C)CC1

Completion:
[-27.8, 1.54, -6.44, -10.3, -4.33]
